Reported TGI values for the following compounds.
System: SR leukemia
Assay: NCI tumour cell line growth inhibition, 48 h
// units = µM; emit number, no label

Known TGI results, listed for orientation:
CCN(C(=S)N[C@@H](Cc1ccccc1)C(=O)N[C@@H](CC(C)C)C(=O)OC)c1ccccc1 | 61.6
Cc1csc(-c2cn(C)c3c2C(=O)C(N)=CC3=O)n1 | 19.5
N=S(c1ccccc1)c1ccccc1[N+](=O)[O-] (stereo unspecified) | 50.1
CNC(=O)c1cc2c(Oc3ccc(NC(=O)C4(C(=O)Nc5ccc(F)cc5)CC4)cc3)ccnc2cc1OC | 5.99
COC(=O)[C@]12CC[C@H]3CN(C(=O)OCc4ccccc4)[C@H]([C@H]31)[C@H](c1ccco1)N2S(=O)(=O)c1ccc(C)cc1 | 81
CC1(C)CC[C@H](C2=CC(=O)c3c(O)ccc(O)c3C2=O)O1 | 1.46

Bench note: what TGI did CC1CC[C@@]2(OC1)OC1C[C@H]3[C@@H]4CC[C@H]5CC(OC6OC(CO)C(OC7OC(CO)C(O)C(O)C7OC7OC(CO)C(O)C(O)C7O)C(O)C6O)CCC5(C)[C@H]4CCC3(C)C1[C@@H]2C (stereo partly specified) show?
7.95

Bench note: what TGI did CCCCC1c2c([nH]c3ccccc23)C2C(=O)N(c3ccc(OC)cc3)C(=O)C2C1CCC (stereo unspecified) show?
8.22

Bench note: what TGI did O=C1C(SCCO)=C(SCCO)C(=O)c2ccccc21 show?
3.74
